Test system: HUVEC cells
method: MTT cytotoxicity, healthy cells HUVEC
Assay type: cell-based, human
measurement-parameters: MTT, no * mark (incubation time not specified)
IC50 values for the molecules below.

# molecule, value-qualifier, IC50 (nM)
records = [
    ("Cc1ccc(CN2C(=O)/C(=C\\c3c[nH]c4ccccc34)c3ccccc32)cc1", "=", 2460),
    ("O=C1/C(=C\\c2c[nH]c3ccccc23)c2ccccc2N1Cc1ccccc1", "=", 2840),
    ("Cc1ccc2c(c1)/C(=C/c1c[nH]c3ccccc13)C(=O)N2Cc1ccc(Cl)cc1 [47C]", ">", 10000),
    ("O=C1/C(=C\\c2c[nH]c3ccccc23)c2cc(F)ccc2N1Cc1cccc(Cl)c1 [11C]", ">", 10000),
    ("O=C1/C(=C\\c2c[nH]c3ccccc23)c2cccc(Cl)c2N1Cc1ccc(F)cc1 [24C]", "=", 1260),
    ("O=C1/C(=C\\c2c[nH]c3ccccc23)c2cc(OC(F)(F)F)ccc2N1Cc1cccc(F)c1", "=", 2560),
    ("O=C1/C(=C\\c2c[nH]c3ccccc23)c2cc(F)ccc2N1Cc1ccc(Cl)cc1 [12C]", "=", 550),
    ("O=C1/C(=C\\c2c[nH]c3ccccc23)c2cc(OC(F)(F)F)ccc2N1Cc1ccc(Cl)cc1", "=", 2720),
    ("O=C1/C(=C\\c2c[nH]c3ccccc23)c2cc(Cl)cc(Cl)c2N1Cc1ccccc1 [36C]", "=", 2240),
    ("Cn1cc(/C=C2\\C(=O)N(Cc3ccccc3)c3ccc(Cl)cc32)c2ccccc21", "=", 4180),
    ("O=C1/C(=C\\c2c[nH]c3ccccc23)c2cc(OC(F)(F)F)ccc2N1Cc1ccccc1", "=", 2440),
    ("O=C1/C(=C\\c2c[nH]c3ccccc23)c2ccccc2N1Cc1cccc(F)c1 [51C]", "=", 5700),
    ("Cc1cccc(CN2C(=O)/C(=C\\c3c[nH]c4ccccc34)c3ccccc32)c1 [50C]", "=", 860),
]

---

Test system: MIAPaCa-2 cells
method: MTT cytotoxicity, pancreas cancer cells MIAPaCa-2
Assay type: cell-based, human
measurement-parameters: MCF-10F/Beas2b vs MIAPaCa-2
Entries and their measured selectivity index follow.

# compound, selectivity index
measured = [
    ("O=C1/C(=C\\c2c[nH]c3ccccc23)c2cc(OC(F)(F)F)ccc2N1Cc1ccccc1 [Y4]", "> 19"),
    ("O=C1/C(=C\\c2c[nH]c3ccccc23)c2cc(F)ccc2N1Cc1ccccc1 [Y5]", "> 37"),
    ("Cc1ccc(CN2C(=O)/C(=C\\c3c[nH]c4ccccc34)c3ccccc32)cc1 [Y21]", "> 25"),
]

---

Test system: HT-29 cells
method: MTT cytotoxicity, colon cancer cells HT-29
Type: cell-based, human
measurement-parameters: MTT, no * mark (incubation time not specified)
pIC50: −log10 of the molar value.
Below: a set of entries, each annotated with reported pIC50.

# compound, pIC50
measured = [
    ("Cc1ccc(CN2C(=O)/C(=C\\c3c[nH]c4ccccc34)c3cc(F)ccc32)cc1 [Y25]", "< 5.00"),
    ("O=C1/C(=C\\c2c[nH]c3ccccc23)c2cccc(F)c2N1Cc1ccccc1 [29C]", "< 5.00"),
    ("O=C1/C(=C\\c2c[nH]c3ccccc23)c2cc(Cl)ccc2N1Cc1ccc(Cl)cc1 [19C]", "< 5.00"),
    ("Cc1cccc(CN2C(=O)/C(=C\\c3c[nH]c4ccccc34)c3cc(F)ccc32)c1 [13C]", "< 5.00"),
]
